Target: α1β3 GABAA receptors (Homo sapiens, UniProt P14867+P28472)
Construct: expressed in transfected cells; host or cells: Xenopus laevis oocytes, cRNA injected 5:1 (α1:β3)
Sequence (P14867 28-456): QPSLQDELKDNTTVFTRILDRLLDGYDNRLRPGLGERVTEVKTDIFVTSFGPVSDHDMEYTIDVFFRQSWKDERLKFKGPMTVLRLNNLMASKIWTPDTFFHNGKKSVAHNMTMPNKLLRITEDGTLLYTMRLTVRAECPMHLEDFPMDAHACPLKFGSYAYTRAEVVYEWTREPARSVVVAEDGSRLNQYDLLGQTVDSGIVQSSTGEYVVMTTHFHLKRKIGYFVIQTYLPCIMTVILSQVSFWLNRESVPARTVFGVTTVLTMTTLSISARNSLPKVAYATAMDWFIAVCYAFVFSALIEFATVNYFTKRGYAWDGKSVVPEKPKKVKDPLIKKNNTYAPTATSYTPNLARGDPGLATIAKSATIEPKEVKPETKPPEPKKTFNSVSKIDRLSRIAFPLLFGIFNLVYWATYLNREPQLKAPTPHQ
Sequence (P28472 26-473): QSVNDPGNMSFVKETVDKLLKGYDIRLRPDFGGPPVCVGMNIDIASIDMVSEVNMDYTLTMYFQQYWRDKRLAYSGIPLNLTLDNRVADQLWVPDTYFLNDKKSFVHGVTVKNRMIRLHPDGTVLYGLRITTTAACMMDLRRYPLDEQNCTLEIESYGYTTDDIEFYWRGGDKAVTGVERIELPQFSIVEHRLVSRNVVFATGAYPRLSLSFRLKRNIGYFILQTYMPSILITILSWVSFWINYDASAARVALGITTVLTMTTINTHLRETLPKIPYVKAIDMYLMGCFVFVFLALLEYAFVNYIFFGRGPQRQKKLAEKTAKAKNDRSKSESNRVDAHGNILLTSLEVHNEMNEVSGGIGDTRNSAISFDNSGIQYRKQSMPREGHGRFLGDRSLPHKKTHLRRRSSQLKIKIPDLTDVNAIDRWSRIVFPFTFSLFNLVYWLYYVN
Test: Two-electrode voltage clamp of GABA-elicited currents in Xenopus oocytes
Format: cell-based
Details: low GABA; wild-type α1β3
endpoint: potentiation of GABA-elicited currents

[[record]]
compound = "CC(=O)[C@H]1CCC2C3CC[C@H]4C[C@@](C)(O)CC[C@]4(C)C3CC[C@@]21C (stereo partly drawn) [Epi-GX, epi-ganaxolone]"
endpoint = "potentiation of GABA-elicited currents"
readout_value = "do not"

[[record]]
compound = "CO[C@H]1CCC2C3=CC=C4C[C@H](O)CC[C@]4(C)C3=CC[C@@]21C (stereo partly shown)"
endpoint = "potentiation of GABA-elicited currents"
readout_value = "potentiates"

[[record]]
compound = "CC(=O)[C@H]1CCC2C3CC[C@@H]4C[C@@H](O)CC[C@]4(C)C3CC[C@@]21C (stereo partly drawn) [Epi-PREG, Epi-pregnanolone]"
endpoint = "potentiation of GABA-elicited currents"
readout_value = "potentiates"

[[record]]
compound = "CC(=O)[C@H]1CC[C@H]2[C@@H]3CC[C@H]4C[C@@H](O)CC[C@]4(C)[C@H]3CC[C@]12C [Epi-AlloP, epi-allopregnanolone]"
endpoint = "potentiation of GABA-elicited currents"
readout_value = "do not"


----------
Target: ELIC-α1GABAAR (Homo sapiens)
Sequence (P14867 other isoform, or with tags, fused parts or gaps): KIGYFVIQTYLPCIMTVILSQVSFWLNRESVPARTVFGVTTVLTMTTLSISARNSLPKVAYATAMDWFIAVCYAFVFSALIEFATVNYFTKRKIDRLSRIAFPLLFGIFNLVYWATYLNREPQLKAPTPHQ
Sequence (P0C7B7 1-198, further chain): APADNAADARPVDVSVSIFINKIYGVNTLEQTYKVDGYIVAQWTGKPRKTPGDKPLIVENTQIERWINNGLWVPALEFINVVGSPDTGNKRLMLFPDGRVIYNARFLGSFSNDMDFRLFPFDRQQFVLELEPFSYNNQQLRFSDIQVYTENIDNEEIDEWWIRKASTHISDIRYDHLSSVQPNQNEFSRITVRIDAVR
Type: binding
Conditions: 3α-OH NS; MQ290 3 μM
# Hill slope per entry
Enter a number only.

[[record]]
compound = "CO[C@H]1CCC2C3CC[C@H]4C[C@H](O)CC[C@]4(C)C3CC[C@@]21C (stereo partly shown)"
readout_value = "−0.98"

[[record]]
compound = "CC(=O)[C@H]1CC[C@H]2[C@@H]3CC[C@H]4C[C@](C)(O)CC[C@]4(C)[C@H]3CC[C@]12C"
readout_value = "−1.57"

[[record]]
compound = "CC(=O)[C@H]1CC[C@H]2[C@@H]3CC[C@H]4C[C@H](O)CC[C@]4(C)[C@H]3CC[C@]12C"
readout_value = "−1.89"


// below: Hill slope requested for another compound
Challenge: Consider the compound CC(=O)[C@H]1CC[C@H]2[C@@H]3CC[C@@H]4C[C@H](O)CC[C@]4(C)[C@H]3CC[C@]12C and give its measured Hill slope.
Response given: −1.02

----------
Molecular target: ELIC-α1^W246LGABAAR (Homo sapiens, UniProt P14867, W273L)
Sequence (P14867 other isoform, or with tags, fused parts or gaps W273L, one chain of several): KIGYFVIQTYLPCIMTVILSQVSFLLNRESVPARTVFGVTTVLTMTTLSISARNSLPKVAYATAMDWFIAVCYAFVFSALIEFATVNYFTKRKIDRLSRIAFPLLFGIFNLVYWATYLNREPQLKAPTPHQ
Assay: biochemical
endpoint: pIC50
To interpret pIC50, take it as minus log10 of a concentration measured in moles per litre.

[[record]]
molecule = "CC(=O)[C@H]1CC[C@H]2[C@@H]3CC[C@H]4C[C@@H](O)CC[C@]4(C)[C@H]3CC[C@]12C [Epi-AlloP, epi-allopregnanolone]"
readout_value = 6.47


Lab note: next molecule to report on.
Challenge: Item: CC(=O)[C@H]1CC[C@H]2[C@@H]3CC[C@H]4C[C@H](O)CC[C@]4(C)[C@H]3CC[C@]12C Test system: ELIC-α1^W246LGABAAR (Homo sapiens, UniProt P14867, W273L) Read-out: pIC50 Value: ?
Response given: 6.30
